I'd appreciate it if you could supply pKd values for the items below.
Molecular target: T1, RADIL, Q96JH8
T1 sequence (Q96JH8 971-1071, limits assumed, looked up): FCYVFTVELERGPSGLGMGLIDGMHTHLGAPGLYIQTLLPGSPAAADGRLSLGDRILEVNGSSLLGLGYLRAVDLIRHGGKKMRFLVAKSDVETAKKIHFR
Experiment: holdup assay
Parameters: key: below the threshold = too weak to quantify, mostly under pKd 3.1 to 4
Conditions: plain residues with an end cap or a label only (N-terminal biotin on a linker: ado-ado)
Keep the answer to the number alone.

Short answer for NKSEPFLTWL [WWTR1, Q9GZV5] : pKd was 5.57

Short answer for MLPANYVEAI [NEB, P20929] : pKd was 3.65

Short answer for EFKQTSSFLV [JAM1, Q9Y624] : pKd was 4.62

Short answer for HDDYFYHDEL [RCN2, Q14257] : pKd was 3.5

Short answer for YAEKRMLTEV [KCNA6, P17658] : pKd was 3.97

Short answer for QKNKDREYYV [NRXN3, Q9HDB5] : pKd was 4.7

Short answer for TFSRRPKTRV [CD226, Q15762] : pKd was 3.57

Short answer for GVHSNDHSVV [LPAR1, Q92633] : pKd was 3.62

Short answer for TNSKQGETTV [FZD1, Q9UP38] : pKd was 3.63

Short answer for LLQEEWETVM [PTH1R, Q03431] : pKd was 3.99

Short answer for KLQNPNQSVV [TYRP1, P17643] : pKd was 4.05

Short answer for HYPASPDSWV [CTNND2, Q9UQB3] : pKd was 5.02

Short answer for PLPPEEESWV [GAS2L2, Q8NHY3] : pKd was 4.55

These data points were gathered from paper PMC9482650.
